System: PBMC
protocol.summary: Cytotoxicity against normal human PBMC assessed as reduction in cell viability at 10 times anti-leukemic IC50 after 48 hrs by Alamar blue assay
Format: cell-based
Where a name gives a salt, the structure may show the parent alone.
property: Activity

>  <compound>
COc1cccc2c1C(=O)c1c(O)c3c(c(O)c1C2=O)C[C@@](O)(C(=O)CO)C[C@@H]3O[C@H]1C[C@H](N)[C@H](O)[C@H](C)O1 [DOXORUBICIN HYDROCHLORIDE]

>  <property>
Activity

>  <endpoint.value>
> 80%

$$$$
>  <compound>
CC1(C)OC2=C(C(=O)C(=O)c3ccccc32)C1n1cc(COC2CCCCO2)nn1 (stereo unspecified)

>  <property>
Activity

>  <endpoint.value>
> 80%

$$$$
>  <compound>
CC1(C)OC2=C(C(=O)C(=O)c3ccccc32)C1n1cc(C2CCCCC2)nn1 (stereo unspecified)

>  <property>
Activity

>  <endpoint.value>
Non-toxic

$$$$
>  <compound>
CC(=O)OCc1cn(C2C3=C(OC2(C)C)c2ccccc2C(=O)C3=O)nn1 (stereo unspecified)

>  <property>
Activity

>  <endpoint.value>
> 80%

$$$$
>  <compound>
CCCCCCc1cn(C2C3=C(OC2(C)C)c2ccccc2C(=O)C3=O)nn1 (stereo unspecified)

>  <property>
Activity

>  <endpoint.value>
> 80%

$$$$

Now look at this one.
## Input // returns reported Activity for input CC1(C)OC2=C(C(=O)C(=O)c3ccccc32)C1N=[N+]=[N-] (stereo unspecified)
## Output > 80%

----------
For each of the compounds below, state its IC50.
protocol.summary: Cytotoxicity against human KG1 cells after 48 hrs by Alamar blue assay
Assay type: functional, cell-based
condition.set: KG-1, 48 h
Supply the numeric figure in µM, leaving out any unit text.

## Input Would you mind telling me what IC50 value was observed for CC1(C)OC2=C(C(=O)C(=O)c3ccccc32)C1n1cc(C2CCCCC2)nn1 (stereo not given) ?
## Output 7.62

## Input CC1(C)OC2=C(C(=O)C(=O)c3ccccc32)C1n1cc(CCl)nn1 (stereo not given) , same question.
## Output 0.98

## Input Another compound to check: CC(=O)OCc1cn(C2C3=C(OC2(C)C)c2ccccc2C(=O)C3=O)nn1 (stereo not given)
## Output 9.58

## Input Also check CC1(C)OC2=C(C(=O)C(=O)c3ccccc32)C1n1cc(COC2CCCCO2)nn1 (stereo not given)
## Output 5.63

## Input Same for CCCCCCc1cn(C2C3=C(OC2(C)C)c2ccccc2C(=O)C3=O)nn1 (stereo not given)
## Output 5.58

## Input Request: CC(C)CC(C)(O)c1cn(C2C3=C(OC2(C)C)c2ccccc2C(=O)C3=O)nn1 (stereo not given)
## Output 1.32

## Input Also need CC1(C)OC2=C(C(=O)C(=O)c3ccccc32)C1n1cc(CCCCl)nn1 (stereo not given) , thanks.
## Output 0.93

## Input And for CC1(C)OC2=C(C(=O)C(=O)c3ccccc32)C1N=[N+]=[N-] (stereo not given) ?
## Output 6.06

## Input Note, next up: CCC(C)(O)c1cn(C2C3=C(OC2(C)C)c2ccccc2C(=O)C3=O)nn1 (stereo not given)
## Output 5.63

## Input Queued: CC(C)(O)c1cn(C2C3=C(OC2(C)C)c2ccccc2C(=O)C3=O)nn1 (stereo not given)
## Output 2

----------
protocol.summary: Cytotoxicity against human KG1 cells after 48 hrs by Alamar blue assay
Assay type: functional, cell-based
condition.set: KG-1, 48 h
pIC50: −log10 of the molar value.
Entry flag: fulfilled if pIC50 reaches 5; not fulfilled if it does not.

## Input Evaluate CC1(C)OC2=C(C(=O)C(=O)c3ccccc32)C1n1cc(C2(O)CCCCC2)nn1 (stereo not given) : pIC50 at minimum 5?
## Output fulfilled

## Input Try this molecule next: COc1ccc(-c2cn(C3C4=C(OC3(C)C)c3ccccc3C(=O)C4=O)nn2)cc1 (stereo not given)
## Output not fulfilled

## Input One more molecule: CCCCCc1ccc(-c2cn(C3C4=C(OC3(C)C)c3ccccc3C(=O)C4=O)nn2)cc1 (stereo not given)
## Output fulfilled

## Input Same read-out for CC1(C)CC2=C(O1)c1ccccc1C(=O)C2=O ?
## Output not fulfilled

## Input Another molecule to look at: CCCCCc1cn(C2C3=C(OC2(C)C)c2ccccc2C(=O)C3=O)nn1 (stereo not given)
## Output not fulfilled

----------
Test system: PBMC
protocol.summary: Cytotoxicity against normal human PBMC assessed as reduction in cell viability at 10 times anti-leukemic IC50 after 48 hrs by Alamar blue assay
Type: cell-based
property: Activity

Previously resolved entries follow.
>  <molecule>
CC(C)(O)c1cn(C2C3=C(OC2(C)C)c2ccccc2C(=O)C3=O)nn1 (stereo not given)

>  <system.tested>
PBMC

>  <Activity>
> 80%

$$$$
>  <molecule>
CCC(C)(O)c1cn(C2C3=C(OC2(C)C)c2ccccc2C(=O)C3=O)nn1 (stereo not given)

>  <system.tested>
PBMC

>  <Activity>
Non-toxic

$$$$
>  <molecule>
CC1(C)OC2=C(C(=O)C(=O)c3ccccc32)C1n1cc(C2=CCCCC2)nn1 (stereo not given)

>  <system.tested>
PBMC

>  <Activity>
> 80%

$$$$
>  <molecule>
CCCCCc1cn(C2C3=C(OC2(C)C)c2ccccc2C(=O)C3=O)nn1 (stereo not given)

>  <system.tested>
PBMC

>  <Activity>
> 80%

$$$$
>  <molecule>
CC(C)CC(C)(O)c1cn(C2C3=C(OC2(C)C)c2ccccc2C(=O)C3=O)nn1 (stereo not given)

>  <system.tested>
PBMC

>  <Activity>
> 80%

$$$$

With those in mind, consider the next molecule.
## Input Consider the molecule shown here: CC1(C)OC2=C(C(=O)C(=O)c3ccccc32)C1n1cc(C2(O)CCCCC2)nn1 (stereo not given) What is its recorded Activity?
## Output > 80%

----------
System: PBMC
protocol.summary: Cytotoxicity against normal human PBMC assessed as reduction in cell viability at 10 times anti-leukemic IC50 after 48 hrs by Alamar blue assay
Assay type: cell-based
property: Activity

Here are 5 compounds together with their reported answers.
>  <compound>
CC1(C)OC2=C(C(=O)C(=O)c3ccccc32)C1n1cc(CCl)nn1 (centres undefined)

>  <Activity>
Non-toxic

$$$$
>  <compound>
CC1(C)OC2=C(C(=O)C(=O)c3ccccc32)C1n1cc(-c2ccccc2)nn1 (centres undefined)

>  <Activity>
Non-toxic

$$$$
>  <compound>
CCCCCc1ccc(-c2cn(C3C4=C(OC3(C)C)c3ccccc3C(=O)C4=O)nn2)cc1 (centres undefined)

>  <Activity>
> 80%

$$$$
>  <compound>
CC1(C)CC2=C(O1)c1ccccc1C(=O)C2=O

>  <Activity>
> 80%

$$$$
>  <compound>
CC1(C)OC2=C(C(=O)C(=O)c3ccccc32)C1n1cc(CCCCl)nn1 (centres undefined)

>  <Activity>
> 80%

$$$$

## Input Suppose we examine the compound CCCCc1cn(C2C3=C(OC2(C)C)c2ccccc2C(=O)C3=O)nn1 (centres undefined) ; what Activity value has been reported?
## Output > 80%

## Input Also check COc1ccc(-c2cn(C3C4=C(OC3(C)C)c3ccccc3C(=O)C4=O)nn2)cc1 (centres undefined)
## Output > 80%

## Input What do you get for CC1(C)OC2=C(C(=O)C(=O)c3ccccc32)C1n1cc(CO)nn1 (centres undefined) ?
## Output > 80%

## Input Okay, and CCCc1cn(C2C3=C(OC2(C)C)c2ccccc2C(=O)C3=O)nn1 (centres undefined) ?
## Output > 80%
